test system: C. glabrata; assay: MIC; type: cell-based

COMPOUND	MEASURE_UNIT	MIC C. glabrata
CC1C=CC=CC=CC=CC=CC=CC=CC(OC2OC(C)C(O)C(N)C2O)CC2OC(O)(CC(O)CC(O)C(O)CCC(O)CC(O)CC(=O)OC(C)C(C)C1O)CC(O)C2C(=O)NCCF (stereo not shown)	µM	250
CNC(=O)C1C(O)CC2(O)CC(O)CC(O)C(O)CCC(O)CC(O)CC(=O)OC(C)C(C)C(O)C(C)C=CC=CC=CC=CC=CC=CC=CC(OC3OC(C)C(O)C(N)C3O)CC1O2 (stereo not shown)	µM	0.375
CC1C=CC=CC=CC=CC=CC=CC=CC(OC2OC(C)C(O)C(N)C2O)CC2OC(O)(CC(O)CC(O)C(O)CCC(O)CC(O)CC(=O)OC(C)C(C)C1O)CC(O)C2C(=O)NC1CCCCCC1 (stereo not shown)	µM	2000
CC1C=CC=CC=CC=CC=CC=CC=CC(OC2OC(C)C(O)C(N)C2O)CC2OC(O)(CC(O)CC(O)C(O)CCC(O)CC(O)CC(=O)OC(C)C(C)C1O)CC(O)C2C(=O)NC1CCC1 (stereo not shown)	µM	0.5
